Reported values of log10(Ki) for individual entries
Molecular target: human V1a receptor (Homo sapiens, UniProt P37288)
Construct: host or cells: CHO cells (hV1a cell line)
Sequence (P37288 whole entry): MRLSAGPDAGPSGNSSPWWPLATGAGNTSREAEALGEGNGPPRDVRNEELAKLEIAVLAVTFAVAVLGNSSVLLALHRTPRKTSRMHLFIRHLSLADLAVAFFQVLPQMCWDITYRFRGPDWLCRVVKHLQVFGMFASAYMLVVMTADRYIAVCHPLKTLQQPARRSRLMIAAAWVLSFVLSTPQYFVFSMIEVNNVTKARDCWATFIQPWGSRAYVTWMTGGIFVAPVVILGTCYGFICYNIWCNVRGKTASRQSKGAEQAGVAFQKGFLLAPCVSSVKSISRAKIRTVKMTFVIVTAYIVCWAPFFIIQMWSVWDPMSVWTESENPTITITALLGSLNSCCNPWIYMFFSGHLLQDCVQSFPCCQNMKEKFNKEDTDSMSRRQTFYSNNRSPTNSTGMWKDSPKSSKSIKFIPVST
Assay: Human vasopressin V1a receptor binding assay (3H-AVP competition, hV1a CHO cells)
Conditions: 3H-AVP competition, CHO cells expressing human V1a; read-out: V1a Ki
Protocol: Human vasopression V1a receptor binding assay. A cell line expressing the human V1a receptor in CHO cells (henceforth referred to as the hV1a cell line) was obtained from Dr. Michael Brownstein, NIMH, Bethesda, Md., USA. […] Samples were counted in a liquid scintillation counter (Beckman LS3801). IC50 values were calculated by Prism Curve fitting software. […]
Would you kindly interpret these values as log10 of Ki expressed in nM?

Sample records with log10(Ki):
C[C@@H](NC(=O)[C@H](CCC(=O)N1CCN(C2CCCCC2)CC1)N1C(=O)[C@@H](N2C(=O)OC[C@@H]2c2ccccc2)[C@H]1/C=C/c1ccccc1)c1cccc(C(F)(F)F)c1 [Example 221F]
0.02
CN(Cc1cccc(Cl)c1Cl)C(=O)C(CCC(=O)N1CCN(C2CCCCC2)CC1)N1C(=O)C(N2C(=O)OCC2c2ccccc2)C1C=Cc1ccccc1 (stereo not shown) [Example 221B]
-0.44

Input: Could you please provide reported log10(Ki) for O=C(NCc1cccc(C(F)(F)F)c1)C(CCC(=O)N1CCN(CC2CCCCC2)CC1)N1C(=O)C(N2C(=O)OCC2c2ccccc2)C1C=Cc1ccccc1 (stereo not shown) ? Thanks!
Output: -0.34

Input: Could you please provide reported log10(Ki) for O=C(N[C@@H]1CCCc2ccccc21)[C@H](CCC(=O)N1CCN(C2CCCCC2)CC1)N1C(=O)[C@@H](N2C(=O)OC[C@@H]2c2ccccc2)[C@H]1/C=C/c1cccc(C(F)(F)F)c1 ? Thanks!
Output: 0.11

Input: Could you please provide reported log10(Ki) for O=C(NC1(c2ccc(F)cc2)CCCC1)C(CCC(=O)N1CCN(C2CCCCC2)CC1)N1C(=O)C(N2C(=O)OCC2c2ccccc2)C1C=Cc1ccccc1 (stereo not shown) [Example 221I] ? Thanks!
Output: 0.87

Input: Could you please provide reported log10(Ki) for O=C(NC1(c2ccccc2)CCCC1)[C@H](CCC(=O)N1CCN(Cc2ccccc2)CC1)N1C(=O)[C@@H](N2C(=O)OC[C@@H]2c2ccccc2)[C@H]1/C=C/c1ccccc1 ? Thanks!
Output: 1.19

Input: Could you please provide reported log10(Ki) for O=C(NCc1cccc(C(F)(F)F)c1)C(CCC(=O)N1CCN(CCN2CCOCC2)CC1)N1C(=O)C(N2C(=O)OCC2c2ccccc2)C1C=Cc1ccccc1 (stereo not shown) ? Thanks!
Output: -0.10

Input: Could you please provide reported log10(Ki) for O=C(NCc1cccc(C(F)(F)F)c1)C(CC(=O)N1CCC(CCN2CCCCC2)CC1)N1C(=O)C(N2C(=O)OCC2c2ccccc2)C1C=Cc1ccccc1 (stereo not shown) [Example 134A] ? Thanks!
Output: 0.90

Input: Could you please provide reported log10(Ki) for O=C(CC(C(=O)NCc1cccc(C(F)(F)F)c1)N1C(=O)C(N2C(=O)OCC2c2ccccc2)C1C=Cc1ccccc1)NC1CCN(Cc2ccccc2)C1 (stereo not shown) ? Thanks!
Output: 0.56

Input: Could you please provide reported log10(Ki) for CN(Cc1cccc(Cl)c1)C(=O)C(CCC(=O)N1CCN(C2CCCCC2)CC1)N1C(=O)C(N2C(=O)OCC2c2ccccc2)C1C=Cc1ccccc1 (stereo not shown) [Example 221C] ? Thanks!
Output: 0.26

Input: Could you please provide reported log10(Ki) for O=C(C(COCc1ccccc1)N1C(=O)C(N2C(=O)OCC2c2ccccc2)C1C=Cc1ccccc1)N1CCC(CCN2CCCCC2)CC1 (stereo not shown) ? Thanks!
Output: -0.47

Input: Could you please provide reported log10(Ki) for O=C(NCc1cccc(C(F)(F)F)c1)C(C(=O)N1CCC(N2CCCCC2)CC1)N1C(=O)C(N2C(=O)OCC2c2ccccc2)C1C=Cc1ccccc1 (stereo not shown) ? Thanks!
Output: 0.53

Input: Could you please provide reported log10(Ki) for O=C(CC(C(=O)NCc1cccc(C(F)(F)F)c1)N1C(=O)C(N2C(=O)OCC2c2ccccc2)C1C=Cc1ccccc1)NC1CCN(Cc2ccccc2)CC1 (stereo not shown) [Example 63] ? Thanks!
Output: 0.05

Input: Could you please provide reported log10(Ki) for O=C(NCc1cccc(C(F)(F)F)c1)C(CCC(=O)N1CCN(Cc2ccccc2)CC1)N1C(=O)C(N2C(=O)OCC2c2ccccc2)C1C=Cc1ccccc1 (stereo not shown) ? Thanks!
Output: 0.03

Input: Could you please provide reported log10(Ki) for CCCCN1CCN(C(=O)CCC(C(=O)NCc2cccc(C(F)(F)F)c2)N2C(=O)C(N3C(=O)OCC3c3ccccc3)C2C(Cl)=Cc2ccccc2)CC1 (stereo not shown) ? Thanks!
Output: -0.03
